As shown below, each of these molecules has a reported Specific activity, Hesperetin chalcone value.
test_name: Specific activity of purified CHI, absorbance decrease at 384 nm, hesperetin chalcone; note: unit not given here
Type: biochemical
condition: purified CHI in 50 mM PBS, 100 μM substrate, 25° C.
readout: Specific activity, Hesperetin chalcone

molecule="CHIera Mut8: Chalcone isomerase variant 8 from Eubacterium ramulus, genetically engineered (protein, listed as Eubacterium ramulus) MADFKFEPMRSLIYVDCVSEDYRPKLQRWIYKVHIPDSISKFEPYVTKYAFYPSFPIPPQGDRFGYARMQLTEHHWLVSPLDPRLEINAIAETFPMDVLVWQGQIPAAAHTDAQIDSDGDAGEAARKSNNAEGNPFIFAFLPMWWEKDLKGKGRTIEDGANYRFNMTIGFPEGVDKAEGEKWLFEKVVPILQAAPECTRVLASAVKKDINGCVMDWVLEIWFENQSGWYKVMVDDMKALEKPSWAQQDAFPFLKPYHNVCSAAVADYTPSNNLANYRGYITMR" result=83.9
molecule="CHIera Mut10: Chalcone isomerase variant 10 from Eubacterium ramulus, genetically engineered (protein, listed as Eubacterium ramulus) MADFKFEPMRSLIYVDCVSEDYRPKLQRWIYKVHIPDSISQFEPYVTKYAFYPSFPIPPQGDRFGYARMQLTEHHWLVSILDPRLEIKAIAETFPMDVLVWQGQIPAAAHTDAQIDSDGDAGDAARKSNNAEGNPFIFAFLPMWWEKDLKGKGRTIEDGANYRFNMTIGFPEGVDKAEGEKWLFEKVVPILQAAPECTRVLASAVKKDINGCVMDWVLEIWFENQSGWYKVMVDDMKALEKPSWAQQDAFPFLKPYHNVCSAAVADYTPSNNLANYRGYITMR" result=96.4
molecule="CHI1: Chalcone isomerase from Fusibacter sp. 3D3, access no. WP_069876268.1 (protein, Fusibacter sp. 3D3) SYVPEFKPMRSFILNNVRSDNDRPKAFRWLYKQHVPESISQFRPYCTKYATYHALPLVEGAEQFGTYNWIMTEHYWNFNIFQDKGLGHSRGLAFTEAYPHDFMEITCQPPSNTLRQSGWQGSAEGYHPIVFCFAPIFWENDFKGSERLTDDGANFRWLFFLSYPEGVTVEEGDQWFLETFAKEAAEMPEVIRFLSSRVMDSPRINPFDRIVELWFDDSEAWHNAMVKNGHLFTKPAWSKVDQFPFFEAYKDITGVFIMDRPDSDHLAQWQGYITTR" result=16.7
